Give Absorbance at PSS, +UV for every item shown.
assay: Absorbance at photostationary state (PSS) under simulated sunlight or 365 nm light; format: physicochemical; conditions: simulated sunlight with UV blocking film (cutoff 370 nm); 2.0×10^−5 M in triglyme

Reported Absorbance at PSS, +UV for CC(C)(C)c1ccc(-c2sc(C(C)(C)C)cc2C2=C(c3cc(C(C)(C)C)sc3-c3ccc(C(C)(C)C)s3)C(F)(F)C(F)(F)C2(F)F)s1 was 0.006

Reported Absorbance at PSS, +UV for N#Cc1ccc(-c2cc(C3=C(c4cc(-c5ccc(C#N)cc5)sc4-c4ccc(C#N)cc4)C(F)(F)C(F)(F)C3(F)F)c(-c3ccc(C#N)cc3)s2)cc1 was 0.024

Reported Absorbance at PSS, +UV for CC(C)Oc1ccc(-c2cc(C3=C(c4cc(-c5ccc(OC(C)C)cc5)sc4-c4ccc(OC(C)C)cc4)C(F)(F)C(F)(F)C3(F)F)c(-c3ccc(OC(C)C)cc3)s2)cc1 was 0.093

Reported Absorbance at PSS, +UV for COCCOCCOCCOC(C)(C)c1ccc(-c2cc(C3=C(c4cc(-c5ccc(C(C)(C)OCCOCCOCCOC)cc5)sc4-c4ccc(C(C)(C)C)cc4)C(F)(F)C(F)(F)C3(F)F)c(-c3ccc(C(C)(C)C)cc3)s2)cc1 was 0.051

Reported Absorbance at PSS, +UV for CC(C)(C)c1ccc(-c2cc(C3=C(c4cc(-c5ccc(C(C)(C)C)s5)sc4-c4ccc(O[Si](O[Si](C)(C)C)(O[Si](C)(C)C)O[Si](C)(C)C)cc4)C(F)(F)C(F)(F)C3(F)F)c(-c3ccc(O[Si](O[Si](C)(C)C)(O[Si](C)(C)C)O[Si](C)(C)C)cc3)s2)s1 was 0.124

Reported Absorbance at PSS, +UV for O=C(O)c1ccc(-c2cc(C3=C(c4cc(-c5ccc(C(=O)O)s5)sc4-c4ccc(C(=O)O)s4)C(F)(F)C(F)(F)C3(F)F)c(-c3ccc(C(=O)O)s3)s2)s1 was 0.018

Reported Absorbance at PSS, +UV for FC1(F)C(c2cc(-c3ccccc3)sc2-c2ccccc2)=C(c2cc(-c3cccs3)sc2-c2cccs2)C(F)(F)C1(F)F was 0.028

Reported Absorbance at PSS, +UV for COc1cc2oc(-c3ccc(C(C)(C)C)cc3)c(C3=C(c4c(-c5ccc(C(C)(C)C)cc5)oc5cc(OC)c(OC)cc45)C(F)(F)C(F)(F)C3(F)F)c2cc1OC was 0.134

Reported Absorbance at PSS, +UV for CC(C)(C)c1ccc(-c2sc(-c3ccc(C(C)(C)O)cc3)cc2C2=C(c3cc(-c4ccc(C(C)(C)O)cc4)sc3-c3ccc(C(C)(C)C)cc3)C(F)(F)C(F)(F)C2(F)F)cc1 was 0.03

Reported Absorbance at PSS, +UV for FC1(F)C(c2cc(-c3ccccc3)sc2-c2ccccc2)=C(c2cc(-c3ccc(Cl)cc3)sc2-c2ccccc2)C(F)(F)C1(F)F was 0.013

Reported Absorbance at PSS, +UV for CCOc1ccc(-c2cc(C3=C(c4cc(-c5ccc(OCC)cc5)sc4-c4ccc(OCC)cc4)C(F)(F)C(F)(F)C3(F)F)c(-c3ccc(OCC)cc3)s2)cc1 was 0.095

Reported Absorbance at PSS, +UV for COc1ccc2c(C3=C(c4c(-c5ccc(OC)c(OC)c5)oc5cc(OC)ccc45)C(F)(F)C(F)(F)C3(F)F)c(-c3ccc(OC)c(OC)c3)oc2c1 was 0.045

Reported Absorbance at PSS, +UV for Cc1ccc(-c2ccc(-c3cc(C4=C(c5cc(-c6ccc(-c7ccc(C)s7)s6)sc5-c5ccc(C)s5)C(F)(F)C(F)(F)C4(F)F)c(-c4ccc(C)s4)s3)s2)s1 was 0.246

Reported Absorbance at PSS, +UV for CC(C)(C)c1ccc(-c2sc(-c3ccc(Cl)cc3)cc2C2=C(c3cc(-c4ccc(Cl)cc4)sc3-c3ccc(C(C)(C)C)cc3)C(F)(F)C(F)(F)C2(F)F)cc1 was 0.038

Reported Absorbance at PSS, +UV for COc1ccc(-c2sc(-c3ccc(OCCOc4ccc(N(c5ccc(Cl)cc5)c5ccc(Cl)cc5)cc4)cc3)cc2C2=C(c3cc(-c4ccc(OCCOc5ccc(N(c6ccc(Cl)cc6)c6ccc(Cl)cc6)cc5)cc4)sc3-c3ccc(OC)cc3)C(F)(F)C(F)(F)C2(F)F)cc1 was 0.058

Reported Absorbance at PSS, +UV for FC(F)(F)c1ccc(-c2cc(C3=C(c4cc(-c5ccc(C(F)(F)F)cc5)sc4-c4ccc(C(F)(F)F)cc4)C(F)(F)C(F)(F)C3(F)F)c(-c3ccc(C(F)(F)F)cc3)s2)cc1 was 0.027

Reported Absorbance at PSS, +UV for CCOCCOCCOCCOc1ccc2c(C3=C(c4c(-c5ccc(C(C)(C)C)cc5)oc5cc(OCCOCCOCCOCC)ccc45)C(F)(F)C(F)(F)C3(F)F)c(-c3ccc(C(C)(C)C)cc3)oc2c1 was 0.06

Reported Absorbance at PSS, +UV for CC(C)(C)c1ccc(-c2cc(C3=C(c4cc(-c5ccc(C(C)(C)C)s5)sc4-c4ccc(C(C)(C)C)s4)C(F)(F)C(F)(F)C3(F)F)c(-c3ccc(C(C)(C)C)s3)s2)s1 was 0.2055

meta.source: patent US10072023B2
